System Under Test: T1, recombinant IL-3Rα ectodomain (human, UniProt P26951 19-305)
T1 construct: extracellular domain; also called recombinant IL-3Ra; biotinylated-IL-3Rα ectodomain
T1 sequence (looked up): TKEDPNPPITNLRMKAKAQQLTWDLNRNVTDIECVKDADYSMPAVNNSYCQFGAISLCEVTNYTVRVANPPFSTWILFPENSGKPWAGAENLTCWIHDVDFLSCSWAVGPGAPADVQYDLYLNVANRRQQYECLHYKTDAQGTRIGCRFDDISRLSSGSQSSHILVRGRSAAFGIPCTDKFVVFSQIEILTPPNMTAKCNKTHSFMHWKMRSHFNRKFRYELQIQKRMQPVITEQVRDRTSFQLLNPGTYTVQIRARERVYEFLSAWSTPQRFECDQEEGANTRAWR
Assay Method Text: competition ELISA, coated mAb 7G3 + biotinylated IL-3Rα ectodomain
Each entry below lists one item and its recorded IC50 value.
Observable: IC50 (nM)

Binder: 55C05 (VHH) VHH: EVQLVESGGGLVPAGDSLRLSCVASGRSLNTYTMGWFRQAPGKECEFVAAINWNGVYRDYADSAKGRFTASRDNAMNTVFLQMNSLKPEDTAVYFCATATQGWDRHTEPSDFGSWGLGTQVTVSS
Quantity Unit: nM
Data Value: 190
--
Binder: 55A01 (VHH, also called CD123#2; A0110055A01) VHH: EVQLVESGGGSVQAGGSLRLSCTTSGRALNMYVMGWFRQAPGNEREFVAATSSSGGSTSYPDSVKGRFTISRDNAKNTVYLQMNSLKPEDTAAYRCAASPYVSTPTMNILEEYRYWGLGTQVTVSS
Quantity Unit: nM
Data Value: 40
--
Binder: 50F07 (VHH) VHH: EVQLVESGGGLVQPGGSLRLSCTGSGSTFSINAMGWYRQAPGKQRELVAAITSGGRTNYADSVKGRFTISRDNSKNTVYLQMNSLRPEDTAVYYCNARISAGTAFWLWSDYEYWGLGTLVTVSS
Quantity Unit: nM
Data Value: 230
